What EBV-EA-positive cell was measured for each of the following?
- Tested on: Epstein-Barr virus early antigen (EBV-EA)
- procedureSummary: Inhibitory effect of TPA-induced EBV-EA activation in Raji cells
- Format: cell-based, human
- conditionDescription: compound concentration 10 (molar ratio/32 pmol TPA); Raji cells, 2 days
The reply should contain only the number, in %.

Query EBV-EA-positive cell for CC(O)c1cc2c(o1)C(=O)c1cccc(O)c1C2=O (racemic) [Racemate NQ801]
52.9

Give the reported value of EBV-EA-positive cell for this record: C[C@@H](O)c1cc2c(o1)C(=O)c1cccc(O)c1C2=O [(R)-NQ801]
59.4

Tell me EBV-EA-positive cell reported for C[C@H](O)c1cc2c(o1)C(=O)c1cccc(O)c1C2=O [(S)-NQ801]
50

Give the value of EBV-EA-positive cell reported for the following: CC1(C)CCC2=C(O1)c1ccccc1C(=O)C2=O [β-Lapachone]
73.1

----------
- System: Epstein-Barr virus early antigen (EBV-EA)
- procedureSummary: Inhibitory effect of TPA-induced EBV-EA activation in Raji cells
- Assay type: cell-based, human
- conditionDescription: compound concentration 100 (molar ratio/32 pmol TPA); Raji cells, 2 days
readoutName: EBV-EA-positive cell

Give me measured EBV-EA-positive cell, please, for this compound: C[C@H](O)c1cc2c(o1)C(=O)c1cccc(O)c1C2=O [(S)-NQ801]
16.9%

Tell me measured EBV-EA-positive cell for C[C@@H](O)c1cc2c(o1)C(=O)c1cccc(O)c1C2=O [(R)-NQ801] please.
24.7%

Fill in reported EBV-EA-positive cell for this entry: CC(O)c1cc2c(o1)C(=O)c1cccc(O)c1C2=O (racemic) [Racemate NQ801]
20.7%

Please supply the value of reported EBV-EA-positive cell for the item `CC1(C)CCC2=C(O1)c1ccccc1C(=O)C2=O`
50.4%

----------
- Test system: Epstein-Barr virus early antigen (EBV-EA)
- procedureSummary: Inhibitory effect of TPA-induced EBV-EA activation in Raji cells
- Type: cell-based, human
- conditionDescription: compound concentration 1000 (molar ratio/32 pmol TPA); Raji cells, 2 days
- Method: Additionally, cancer-preventing effects about Epstein-Barr virus early antigen (EBV-EA) using Raji cell, which was available from George Klein, Karolinska Institute, Sweden, were studied (cf. Table 2). • (1) To a reaction culture (1 ml) in a 15 ml plastic tube were added 1×10^6 of lymphoma Raji cells of human origin, and the mixture was incubated for 2 days at 37° C. under 5% CO2 gas. […]
Consider the following compounds; for each one, report its EBV-EA-positive cell.
Give just the number in %; leave the unit off.

Quote EBV-EA-positive cell reported for CC(O)c1cc2c(o1)C(=O)c1cccc(O)c1C2=O (racemic) [Racemate NQ801] please.
0

For `CC1(C)CCC2=C(O1)c1ccccc1C(=O)C2=O` , write its EBV-EA-positive cell.
4.7

Complete the entry with EBV-EA-positive cell for C[C@H](O)c1cc2c(o1)C(=O)c1cccc(O)c1C2=O [(S)-NQ801]
0

Retrieve EBV-EA-positive cell measured for C[C@@H](O)c1cc2c(o1)C(=O)c1cccc(O)c1C2=O [(R)-NQ801] and print it.
0

----------
Kindly supply the reported EC50 values for the records listed here.
- Tested on: human lung cancer cell A-549
- procedureSummary: Cytotoxicity experiment (trypan blue dead cell count, 3 days incubation)
- Format: cell-based
- conditionDescription: Homo sapiens, A549, 72 h; concentration of 50% of dead cells; 3 days incubation
// return numeric value only (unit: nM, not printed)

Report measured EC50; entry is CC(O)c1cc2c(o1)C(=O)c1cccc(O)c1C2=O (racemic) [Racemate NQ801]
3240

Give the reported EC50 for this compound. `CO[C@@]12[C@H](COC(N)=O)C3=C(C(=O)C(C)=C(N)C3=O)N1C[C@@H]1N[C@@H]12`
430

Provide one value: measured EC50 of C[C@H](O)c1cc2c(o1)C(=O)c1cccc(O)c1C2=O [(S)-NQ801]
960

These entries and their values trace back to patent US7538234B2.
